# System: T-47D breast
# protocol-notes: NCI tumour cell line growth inhibition, 48 h
reported-property: TGI (µM)
Respond numerically; units are µM and should not be typed.

Record `CNC(=S)N=Nc1c(O)n(CN2CCOCC2)c2ccc([N+](=O)[O-])cc12` , field TGI: 38.9

Lab note: measured TGI of `O=C(CCc1cc(O)ccc1O)OCCc1ccccc1` was 64.8

###

Would you kindly list TGI for each of these compounds?
# Test system: SNB-75 CNS
# protocol-notes: NCI tumour cell line growth inhibition, 48 h

Consider `O=C(N[C@@H](c1ccccc1)[C@@H](O)C(=O)OCc1ccc([N+](=O)[O-])cc1)c1ccccc1` . Its measured TGI is > 100 µM

Entry CC(C)N(C(=O)C12C3C4C1(I)C1C2C3(I)C41C(=O)N(C(C)C)C(C)C)C(C)C (stereo unspecified) ; TGI = > 100 µM

// TGI lookup, compound = O=C1NP23(OCCO2)Oc2ccccc2C3(C(F)(F)F)O1 (stereo unspecified) , result: > 100 µM

Looking up `N=C(N)c1ccc2nc(-c3cc(CC(=O)N[C@@H](CC(=O)O)C(=O)O)cc(-c4cc(S(N)(=O)=O)ccc4O)c3O)[nH]c2c1` , I found its TGI recorded as > 100 µM

// recorded TGI for `O=Cc1ccc2c(c1-c1c(C=O)ccc3c1OCO3)OCO2` : > 100 µM

TGI in this record for `COc1ccc(-c2csc(Cc3nc4ccccc4c(=O)n3-c3ccc(Cl)cc3)n2)cc1` : > 100 µM

The recorded TGI for entry S=C1SSC2N=CC=CC12 (stereo unspecified) equals > 100 µM

Given item `NCCSc1nc(-c2ccccc2)c(-c2ccccc2)o1` , the value recorded as its TGI is 61.4 µM

Summary for this compound, `CCCCSC1=N/C(=C\c2ccco2)C(Cl)=N1` : TGI is > 100 µM

Reported TGI for Cc1nn(C(=O)c2ccc(Cl)cc2)c2c1C(/C=C/c1ccccc1)SC(N)=N2 (stereo unspecified) was > 10 µM

Lab note: measured TGI of CC1=C(C(=O)Nc2ccc(Cl)c(Cl)c2)C(c2cccc(Oc3ccccc3)c2)NC(=O)N1 (stereo unspecified) was > 50 µM

###

# Tested on: KM12 colon
# protocol-notes: NCI tumour cell line growth inhibition, 48 h; in the data active = GI50 below about 0.43 µM; inactive = the rest
Hi there, use one of these labels in your reply, thanks! active, inactive

(Q) Short answer needed: outcome of this test for `COc1cc(C(=O)N2CCN(c3ncccn3)CC2)c(N)cc1OCc1ccccc1` ?
(A) inactive

(Q) Which result was noted for this compound in the test: COCC1(CO)C(=O)C2CCN1CC2 (configuration not stated)
(A) inactive

(Q) Give the logged outcome of this assay for the following compound: `COc1ccc(CCNC(=O)c2ccc(NC3=C(Cl)C(=O)N(Cc4ccccc4)C3=O)cc2)cc1OC`
(A) inactive

(Q) Look up the recorded call for `COc1ccc(-c2ccc(-c3ccc(C(=N)N)s3)s2)cc1` in this test.
(A) active

(Q) What call does the record list for `O=C(Nc1ccc(F)cc1)c1cc(S(=O)(=O)Nc2nc3ccccc3o2)c(SCc2ccccc2)cc1Cl` ?
(A) inactive

(Q) Just curious, what result did `CC(=O)Oc1ccccc1C(=O)Nc1ncc([N+](=O)[O-])s1` get here?
(A) inactive

(Q) Hey, what did the test say about `C=C1C(=O)O[C@H]2[C@H]1CC/C(COC(=O)/C=C\C(=O)NCc1ccc(Cn3c(=O)sn(CCCC)c3=O)cc1)=C\CC[C@@]1(C)O[C@@H]21` ?
(A) inactive

(Q) What did the test return for `C#COc1cccc(Nc2c(C#N)cnc3ncc(NC(=O)CCl)cc23)c1` ?
(A) inactive

(Q) # fetch the recorded call for `O=C1NC(=O)/C(=C\c2ccccc2)C2=C1CCCC2` here
(A) inactive

(Q) Please state the recorded outcome for this compound: O=C(O)CC(NC(=O)CP(=O)(O)O)C(=O)O (configuration not stated)
(A) inactive

(Q) Test call, this compound: `COc1ccc(-n2c(C)cc(-c3ccccc3)c2C)cc1`
(A) inactive

(Q) Record request — test call for `O=C1NC(=NCCc2cccc(Cl)c2)S/C1=C\c1ccc2ncccc2c1`
(A) inactive

(Q) What outcome does the record of this test show for `OCCCNc1nccc(-c2c(-c3ccc(F)cc3)nn3cc(C(F)(F)F)ccc23)n1` ?
(A) inactive

(Q) Test call for this compound, please: `NC(=O)c1cc(S(=O)(=O)Nc2nnc(-c3ccccc3)c(-c3ccccc3)n2)c(SCc2ccccc2)cc1Cl`
(A) inactive

(Q) Which result was noted for this compound in the test: `CC(=O)[O][Ga]([Br])[O]C(C)=O`
(A) inactive

(Q) Check the results log: what was the call for CCN1C(=O)N(CC)C2C1NN=c1s/c(=C3\C(=O)N(CC(C)(C)C)c4ccccc43)c(=O)n12 (configuration not stated) ?
(A) inactive

(Q) Just curious, what result did `O=S(=O)(Nc1ccc(F)cc1F)c1ccc(-c2cnc(C3CC3)o2)cc1` get here?
(A) inactive

###

# System: SF-295 CNS
# protocol-notes: NCI tumour cell line growth inhibition, 48 h; in the data active = GI50 below about 0.43 µM; inactive = the rest
Tick one outcome: yes (1) (active), no (0) (inactive)

(Q) Dear colleague, could you share the recorded outcome for CC1=C(C(=O)Nc2ccc(Cl)c(Cl)c2)C(c2cccc(Oc3ccccc3)c2)NC(=O)N1 (centres undefined) when you have a moment?
(A) no (0)

(Q) Write down the call the test reported for this compound. Item: COCC1(CO)C(=O)C2CCN1CC2 (centres undefined)
(A) no (0)

(Q) Call for entry `O[C@H](c1cc(C(F)(F)F)nc2c(C(F)(F)F)cccc12)[C@@H]1CCCCN1` :
(A) no (0)

(Q) So what was the verdict on `CSc1ccc2c(c1)C(=O)c1c-2n(CCCBr)c(=O)c2cc([N+](=O)[O-])ccc12` in this test?
(A) no (0)

(Q) Which result was noted for this compound in the test: `COc1cc2c3c(n(CCCOC(=O)C(F)(F)F)c(=O)c2cc1OC)-c1cc2c(cc1C3=O)OCO2`
(A) yes (1)

(Q) Called result for `CC(=O)[O][Ga]([Br])[O]C(C)=O`
(A) no (0)

(Q) Tell me the assay call for `NC(=O)c1cc(S(=O)(=O)Nc2nnc(-c3ccccc3)c(-c3ccccc3)n2)c(SCc2ccccc2)cc1Cl` please.
(A) no (0)

(Q) What did the test return for `O=C(Nc1ccc(F)cc1)c1cc(S(=O)(=O)Nc2nc3ccccc3o2)c(SCc2ccccc2)cc1Cl` ?
(A) no (0)

(Q) Dear colleague, could you share the recorded outcome for `Cn1cc(C2=C(c3cccc(Br)c3)C(=O)NC2=O)c2ccccc21` when you have a moment?
(A) no (0)

(Q) Please indicate how the test categorized `C=C1C(=O)O[C@H]2[C@H]1CC/C(COC(=O)/C=C\C(=O)NCc1ccc(Cn3c(=O)sn(CCCC)c3=O)cc1)=C\CC[C@@]1(C)O[C@@H]21` .
(A) no (0)

(Q) Entry `O=C(Nc1ccc(-n2ccc3c(NC(=O)c4ccccc4)nccc32)cc1)Nc1ccc(Cl)c(Cl)c1` : call = ?
(A) no (0)

(Q) Kindly provide the recorded test outcome for the following compound: `COc1ccc(-c2ccc(-c3ccc(C(=N)N)s3)s2)cc1`
(A) yes (1)

(Q) Assay result, entry `CCOC(=O)/C=C(/C)Sc1cc(O)c2ccccc2c1O` — outcome?
(A) no (0)

(Q) State the result this test recorded for `N=C(N)c1ccc2nc(-c3cc(CC(=O)N[C@@H](CC(=O)O)C(=O)O)cc(-c4cc(S(N)(=O)=O)ccc4O)c3O)[nH]c2c1` .
(A) no (0)

(Q) Fill in: this test's call for `Cc1[nH]c(/C=C2\C(=O)Nc3ccccc32)c(C)c1CCC(=O)O` is ___
(A) no (0)

(Q) Which outcome was assigned to `OCCCNc1nccc(-c2c(-c3ccc(F)cc3)nn3cc(C(F)(F)F)ccc23)n1` in this test?
(A) no (0)

(Q) Hi team, can someone confirm the assay call for `COc1c[c]([Hg][O]C(C)=O)c(OC)c(NC(=O)CC(C)=O)[c]1[Hg][O]C(C)=O` ?
(A) no (0)

(Q) Assay result, entry `Cc1cc(C)c(/C=C2\C(=O)Nc3ccc(NC(=O)CCCCCCC(=O)NO)cc32)[nH]1` — outcome?
(A) no (0)

(Q) Recorded test call requested for O=C(CSC1CCc2ccccc21)N/N=C/c1ccccc1O (centres undefined)
(A) no (0)

(Q) What outcome does the record of this test show for `COc1ccc(O)c(C(=O)c2ccc(C(=O)N[C@H]3CCCNC[C@@H]3NC(=O)c3ccncc3)cc2)c1F` ?
(A) no (0)

(Q) What is the recorded call for this compound in the test? `CCOC(=O)c1c(NC(=O)c2cccc(C(F)(F)F)c2)sc2c(CN(C)C)c(O)ccc12`
(A) no (0)

(Q) Query: recorded result category for `C1=C\COCc2cc(ccc2OCCN2CCCC2)Nc2nccc(n2)-c2cccc(c2)COC/1` in this test
(A) no (0)

(Q) Answer briefly: the call reported for `CCCCCOc1ccc(/C=N/Nc2cc(C)nc3ccc(Br)cc23)cc1` in this assay.
(A) no (0)

(Q) Status in this test for `NC(=O)OCCn1cc(-c2nc(-c3c[nH]c4ncccc34)cs2)c2ccccc21` ?
(A) no (0)
